Sourced from paper PMC8809517

target-or-system: T1, GFP-9S library array, motif 4 ND N98A;D124L (synthetic construct, N98A;D124L)
T1 chain: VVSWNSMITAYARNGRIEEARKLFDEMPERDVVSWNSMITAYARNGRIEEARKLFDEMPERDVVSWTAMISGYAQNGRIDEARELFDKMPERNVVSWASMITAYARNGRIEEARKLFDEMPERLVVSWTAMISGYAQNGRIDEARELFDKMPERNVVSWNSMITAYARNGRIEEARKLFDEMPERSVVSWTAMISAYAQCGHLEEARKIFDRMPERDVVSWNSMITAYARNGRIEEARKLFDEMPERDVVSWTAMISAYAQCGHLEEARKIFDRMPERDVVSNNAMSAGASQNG
procedure-text: high-throughput RNA pulldown from lysate on Ni-NTA beads; HRP: 50 mM Tris pH 8, 150 mM NaCl, 1 mM beta-mercaptoethanol, 50 ug/ml BSA, 3 ug/ml yeast RNA, 0.5% heparin; ITC and FP: Tris pH 8, 200 mM KCl, 5% glycerol; MST: 50 mM Tris pH 8, 200 mM NaCl, 1 mM DTT, BSA, heparin, 0.05% Tween 20
condition-label: tags: N-terminal His-eGFP; label: 5' IRDye 800CW
# Kd values compiled below
reported-property: Kd

binder | reported-property | observed-measurement
AUUAAACGUGA (ssRNA) [IR-rpoA-A] | Kd | 272 nM
AUUAUACGUGA (ssRNA) [IR-rpoA-U] | Kd | 255 nM
